- Test system: HCT-116 cells
- assay_method_text: Cellular platinum accumulation/distribution by ICP-MS
- Assay type: cell-based, human
- settings: HCT-116, 24 h, 0.35 µM
property_label: Platinum in cytosol (pg Pt/µg protein)
One number for each entry, in pg Pt/µg protein.

{"molecule": "N.N.[Cl][Pt][Cl] [cisplatin, reference compound]", "units_symbol": "pg Pt/µg protein", "reported_result": 3.6}
{"molecule": "CC(=O)[O][Pt]([NH2])([NH2])([Cl])([Cl])[O]C(C)=O [Pt(IV)diAc, cis, cis, trans-[Pt(IV)(NH3)2Cl2(Ac)2]]", "units_symbol": "pg Pt/µg protein", "reported_result": 2.1}
{"molecule": "CCCCCCCC(=O)[O][Pt]([NH2])([NH2])([Cl])([Cl])[O]C(C)=O [Pt(IV)AcOA, cis, cis, trans-[Pt(IV)(NH3)2Cl2AcOA]]", "units_symbol": "pg Pt/µg protein", "reported_result": 48}

Field: next molecule
Input line: What value of measured Platinum in cytosol is listed for CCCCCCCC(=O)[O][Pt]([NH2])([NH2])([Cl])([Cl])[O]C(=O)CCCCCCC [Pt(IV)diOA, cis, cis, trans-[Pt(IV)(NH3)2Cl2(OA)2]] ?
Output line: 59

###

- Test system: DNA from HCT-116 cells
- assay_method_text: Platinum content on DNA isolated from treated cells (ICP-MS)
- Format: cell-based, human
- settings: HCT-116, 24 h, 0.35 µM
- Procedure: As for antitumor cisplatin and its direct derivatives, DNA is believed to be the target also for Pt(IV) prodrugs examined in the present work. The cells were seeded in 150 cm^2 culture flasks at a density 1 × 10^7 cells/flask (67 000 cells/cm^2). After 48-h incubation, the cells were treated with the compounds (0.35 μM) for 24 h. The attached cells were washed twice with PBS (4 °C). […] The DNA content in each sample was determined by UV spectrophotometry. […] The platinum content was determined by ICP-MS. […]
property_label: Platinum content on DNA (pg Pt/µg DNA)
Give bare numbers, in pg Pt/µg DNA.

{"compound": "N.N.[Cl][Pt][Cl] [cisplatin, reference compound]", "Platinum content on DNA (pg Pt/µg DNA)": 1.6}
{"compound": "CCCCCCCC(=O)[O][Pt]([NH2])([NH2])([Cl])([Cl])[O]C(C)=O [Pt(IV)AcOA, cis, cis, trans-[Pt(IV)(NH3)2Cl2AcOA]]", "Platinum content on DNA (pg Pt/µg DNA)": 19.8}
{"compound": "CCCCCCCC(=O)[O][Pt]([NH2])([NH2])([Cl])([Cl])[O]C(=O)CCCCCCC [Pt(IV)diOA, cis, cis, trans-[Pt(IV)(NH3)2Cl2(OA)2]]", "Platinum content on DNA (pg Pt/µg DNA)": 123.1}

Next item in the queue.
Input line: Could you share which Platinum content on DNA value was measured for CC(=O)[O][Pt]([NH2])([NH2])([Cl])([Cl])[O]C(C)=O [Pt(IV)diAc, cis, cis, trans-[Pt(IV)(NH3)2Cl2(Ac)2]] ?
Output line: 1.3

###

- Test system: A2780 human ovarian carcinoma cells
- assay_method_text: MTT cytotoxicity, 72 h
- Assay type: cell-based
- settings: Homo sapiens, A2780; MTT, 72 h, octanoic acid
property_label: IC50 (µM)
Answers are plain numbers, in µM.

Input line: What value of measured IC50 is listed for CCCCCCCC(=O)O [OA, octanoic acid, reference compound] ?
Output line: 1460

###

- System: A2780 cells
- assay_method_text: Cellular platinum accumulation/distribution by ICP-MS
- Format: cell-based, human
- settings: A2780, 24 h, 0.35 µM
property_label: Platinum in nucleus (pg Pt/µg protein)
Give bare numbers, in pg Pt/µg protein.

{"compound": "CCCCCCCC(=O)[O][Pt]([NH2])([NH2])([Cl])([Cl])[O]C(=O)CCCCCCC [Pt(IV)diOA, cis, cis, trans-[Pt(IV)(NH3)2Cl2(OA)2]]", "units_symbol": "pg Pt/µg protein", "Platinum in nucleus": 173}

The following compounds each have a reported value; give each one's Platinum in nucleus.
1. N.N.[Cl][Pt][Cl] [cisplatin, reference compound]
2. CC(=O)[O][Pt]([NH2])([NH2])([Cl])([Cl])[O]C(C)=O [Pt(IV)diAc, cis, cis, trans-[Pt(IV)(NH3)2Cl2(Ac)2]]

Output line:
[3.0, 3.0]

Input line: Form field: reported Platinum in nucleus of CCCCCCCC(=O)[O][Pt]([NH2])([NH2])([Cl])([Cl])[O]C(C)=O [Pt(IV)AcOA, cis, cis, trans-[Pt(IV)(NH3)2Cl2AcOA]]
Output line: 27
